Taken from patent US6458872B1.

assay: Loss of UV absorber from high solids thermoset acrylic melamine clear coat, Xenon-Arc X180 cycle (Example 78); format: physicochemical; settings: in words; summary of the tables of Example 78
metricName: durability (low loss rate absorbance values after exposure)

CC(C)(C)CC(C)(C)c1cc(-n2nc3ccc(Cl)cc3n2)c(O)c(C(C)(C)c2ccccc2)c1 [V] | especially durable
CC(C)(C)CC(C)(C)c1cc(-n2nc3ccc(F)cc3n2)c(O)c(C(C)(C)c2ccccc2)c1 [W] | especially durable
CC(C)(C)CC(C)(C)c1cc(-n2nc3ccc(S(=O)(=O)c4ccccc4)cc3n2)c(O)c(C(C)(C)c2ccccc2)c1 [Compound U] | especially durable

====

assay: Loss of UV absorber from high solids thermoset acrylic melamine clear coat, Xenon-Arc X180 cycle (Example 78); type: physicochemical; conditions: after 1253 hours of exposure; starting absorbance approximately 2.0; 1% hindered amine
metricName: Units Absorbance Loss
Please give only the number in your answer, with no unit.

CC(C)(C)CC(C)(C)c1cc(-n2nc3ccc(C(F)(F)F)cc3n2)c(O)c(C(C)(C)c2ccccc2)c1 [S] | 0.1271
CC(C)(C)c1cc(-n2nc3ccc(S(=O)(=O)c4ccccc4)cc3n2)c(O)c(C(C)(C)C)c1 [T] | 0.1827
CC(C)(c1ccccc1)c1cc(-c2ccccc2)c(O)c(-n2nc3ccccc3n2)c1 [R] | 0.2424

// below: Units Absorbance Loss requested for another compound
## Task Let me know recorded Units Absorbance Loss for CC(C)(C)CC(C)(C)c1cc(-n2nc3ccccc3n2)c(O)c(C(C)(C)c2ccccc2)c1 [Q] , thanks.
## Result 0.2351

====

assay: Loss of UV absorber from high solids thermoset acrylic melamine clear coat, Xenon-Arc X180 cycle (Example 78); format: physicochemical; settings: after 1489 hours of exposure
Listed here are molecules together with their documented Units Absorbance Loss.
When you answer, write just the number.

Worked set:
CC(C)(C)c1cc(-n2nc3ccc(S(=O)(=O)c4ccccc4)cc3n2)c(O)c(C(C)(C)C)c1 | 0.2654
CC(C)(c1ccccc1)c1cc(-c2ccccc2)c(O)c(-n2nc3ccccc3n2)c1 | 0.3724
CC(C)(C)CC(C)(C)c1cc(-n2nc3ccccc3n2)c(O)c(C(C)(C)c2ccccc2)c1 | 0.287

## Task Supply recorded Units Absorbance Loss for CC(C)(C)CC(C)(C)c1cc(-n2nc3ccc(C(F)(F)F)cc3n2)c(O)c(C(C)(C)c2ccccc2)c1 here.
## Result 0.1547

====

test: Loss of UV absorber from high solids thermoset acrylic melamine clear coat, Xenon-Arc X180 cycle (Example 78); format: physicochemical; details: after 1518 hours of exposure
Units Absorbance Loss strictly less than 0.2 = MET. Otherwise NOT MET.

Worked examples, 3 compounds total:
CC(C)(C)CC(C)(C)c1cc(-c2ccccc2)c(O)c(-n2nc3ccccc3n2)c1 | NOT MET
CC(C)(C)CC(C)(C)c1cc(-n2nc3ccccc3n2)c(O)c(C(C)(C)c2ccccc2)c1 | NOT MET
CC(C)(C)CC(C)(C)c1cc(-n2nc3ccc(C(F)(F)F)cc3n2)c(O)c(C(C)(C)c2ccccc2)c1 | MET

## Task Answer whether the compound CC(C)(C)c1cc(-n2nc3ccc(S(=O)(=O)c4ccccc4)cc3n2)c(O)c(C(C)(C)C)c1 has Units Absorbance Loss strictly less than 0.2
## Result NOT MET

## Task Below 0.2 on Units Absorbance Loss? Entry CC(C)(C)CC(C)(C)c1cc(-n2nc3ccc(S(=O)(=O)c4ccccc4)cc3n2)c(O)c(C(C)(C)c2ccccc2)c1
## Result MET

## Task Here's an entry: CC(C)(C)CC(C)(C)c1cc(-n2nc3ccc(F)cc3n2)c(O)c(C(C)(C)c2ccccc2)c1 . Is its Units Absorbance Loss below 0.2?
## Result MET

====

test: Yellowness color of solutions in butyl acetate, Macbeth Color-Eye (Example 75); type: physicochemical; details: yellowness; 30 mg/100 mL in butyl acetate, Macbeth Color-Eye
# note: exactly 0.5 is not below, so it is Not met; use Met for b strictly under it

Consider the following illustrative entries.
CC(C)(C)CC(C)(C)c1cc(-n2nc3ccccc3n2)c(O)c(C(C)(C)c2ccccc2)c1 [Q] | Met
CC(C)(C)CC(C)(C)c1cc(-n2nc3ccc(S(=O)(=O)c4ccccc4)cc3n2)c(O)c(C(C)(C)c2ccccc2)c1 [Compound U] | Not met
CC(C)CCCCCOC(=O)CCc1cc(-n2nc3ccc(C(F)(F)F)cc3n2)c(O)c(C(C)(C)C)c1 [FF] | Not met
CCCCS(=O)(=O)c1ccc2nn(-c3cc(C(C)(C)CC(C)(C)C)cc(C(C)(C)c4ccccc4)c3O)nc2c1 [CC] | Not met
CC(C)(C)CC(C)(C)c1cc(-n2nc3ccc(C(F)(F)F)cc3n2)c(O)c(C(C)(C)c2ccccc2)c1 [S] | Not met

## Task Consider the molecule CC(C)(C)CC(C)(C)c1ccc(O)c(-n2nc3ccc(C(F)(F)F)cc3n2)c1 [BB] . Is its b strictly less than 0.5?
## Result Met

## Task Lab log: compare recorded b with 0.5; is it strictly lower for COC(=O)c1ccc2nn(-c3cc(C(C)(C)CC(C)(C)C)cc(C(C)(C)c4ccccc4)c3O)nc2c1 [DD] ?
## Result Not met

====

assay: UV absorption data (Example 74); assay type: physicochemical
metricName: λ max nm (nm)
Reply numerically in nm, unit not repeated.

Worked cases, answers included:
Oc1ccc(C(F)(F)F)cc1-n1nc2ccccc2n1 [EE] | 328
CC(C)(C)CC(C)(C)c1ccc(O)c(-n2nc3ccc(C(F)(F)F)cc3n2)c1 [BB] | 348
CCCCS(=O)(=O)c1ccc2nn(-c3cc(C(C)(C)CC(C)(C)C)cc(C(C)(C)c4ccccc4)c3O)nc2c1 [CC] | 359

## Task Dear colleague, please send me the reported λ max nm for CC(C)(C)CC(C)(C)c1cc(-n2nc3ccccc3n2)c(O)c(C(C)(C)c2ccccc2)c1 [Q] when you can.
## Result 345

## Task Report λ max nm for CC(C)(C)CC(C)(C)c1cc(-n2nc3ccc(C(F)(F)F)cc3n2)c(O)c(C(C)(C)c2ccccc2)c1 [S]
## Result 348

## Task Respond only with λ max nm recorded for CC(C)(C)CC(C)(C)c1cc(-n2nc3ccc(S(=O)(=O)c4ccccc4)cc3n2)c(O)c(C(C)(C)c2ccccc2)c1 [Compound U]
## Result 362

## Task Identify measured λ max nm associated with COC(=O)c1ccc2nn(-c3cc(C(C)(C)CC(C)(C)C)cc(C(C)(C)c4ccccc4)c3O)nc2c1 [DD]
## Result 358

====

test: Loss of UV absorber from high solids thermoset acrylic clear coat, Xenon Arc Weather-Ometer (Example 77); assay type: physicochemical; conditions: after 1211 hours Xenon arc exposure; clear coat with 1% hindered amine; UV absorber at 5 mmol % by weight
// values below are reported Units Absorbance Loss
# output: bare number, no unit

Past entries and their recorded results:
COC(=O)CCc1cc(-n2nc3ccccc3n2)c(O)c(C(C)(C)C)c1 | 0.5259
CC(C)(C)c1cc(-n2nc3ccc(C#N)cc3n2)c(O)c(C(C)(C)C)c1 | 0.3098
CC(C)(c1ccccc1)c1cc(-n2nc3ccccc3n2)c(O)c(C(C)(C)c2ccccc2)c1 | 0.2576
COC(=O)CCc1cc(-n2nc3ccccc3n2)c(O)c(C(C)(C)c2ccccc2)c1 | 0.3433

Continue with the compound presented below.
## Task Specify Units Absorbance Loss for CC(C)(C)CC(C)(C)c1ccc(O)c(-n2nc3ccccc3n2)c1 [Compound A] and stop.
## Result 1.7982

====

experiment: UV absorption data (Example 74); format: physicochemical; parameters: unit not given beside the values
// reported ε @ λ max for each item listed

CC(C)(C)CC(C)(C)c1cc(-n2nc3ccc(C(F)(F)F)cc3n2)c(O)c(C(C)(C)c2ccccc2)c1 | 15,000
CC(C)(C)CC(C)(C)c1ccc(O)c(-n2nc3ccc(C(F)(F)F)cc3n2)c1 | 14,000
Oc1ccc(C(F)(F)F)cc1-n1nc2ccccc2n1 | 20,700
CCCCS(=O)(=O)c1ccc2nn(-c3cc(C(C)(C)CC(C)(C)C)cc(C(C)(C)c4ccccc4)c3O)nc2c1 | 14,100
COC(=O)c1ccc2nn(-c3cc(C(C)(C)CC(C)(C)C)cc(C(C)(C)c4ccccc4)c3O)nc2c1 | 15,700

## Task Provide one value: measured ε @ λ max of CC(C)(C)CC(C)(C)c1cc(-n2nc3ccc(S(=O)(=O)c4ccccc4)cc3n2)c(O)c(C(C)(C)c2ccccc2)c1
## Result 17,300

## Task For the compound CC(C)(C)CC(C)(C)c1cc(-n2nc3ccccc3n2)c(O)c(C(C)(C)c2ccccc2)c1 , report ε @ λ max.
## Result 16,500

====

experiment: Loss of UV absorber from high solids thermoset acrylic clear coat, Xenon Arc Weather-Ometer (Example 77); format: physicochemical; settings: after 1211 hours Xenon arc exposure; clear coat with 1% hindered amine; UV absorber at 5 mmol % by weight
Outcome label depends on Units Absorbance Loss relative to 0.4: at/above gives rule met, below gives rule not met.

Completed entries (count: 2):
CC(C)(c1ccccc1)c1ccc(O)c(-n2nc3ccccc3n2)c1 [G] | rule met
COc1ccc2nn(-c3cc(C)cc(C(C)(C)C)c3O)nc2c1 [E] | rule met

## Task For this compound, is measured Units Absorbance Loss 0.4 or higher? CC(C)(C)CC(C)(C)c1cc(-n2nc3ccccc3n2)c(O)c(C(C)(C)CC(C)(C)C)c1 [K]
## Result rule not met

## Task Has CC(C)(C)CC(C)(C)c1cc(-n2nc3ccccc3n2)c(O)c(C(C)(C)c2ccccc2)c1 [Q] a recorded Units Absorbance Loss greater than or equal to 0.4?
## Result rule not met

## Task Please check the record CC(C)(C)CC(C)(C)c1cc(Cc2cc(C(C)(C)CC(C)(C)C)cc(-n3nc4ccccc4n3)c2O)c(O)c(-n2nc3ccccc3n2)c1 [Compound B] and state if its Units Absorbance Loss is at or above 0.4.
## Result rule met

## Task Is reported Units Absorbance Loss greater than or equal to 0.4 here: CC(C)(C)CC(C)(C)c1ccc(O)c(-n2nc3ccccc3n2)c1 [J]
## Result rule met

## Task Does Units Absorbance Loss meet or surpass 0.4 for COC(=O)CCc1ccc(O)c(-n2nc3ccccc3n2)c1 [D] ?
## Result rule met

## Task Determine whether this compound has Units Absorbance Loss no lower than 0.4: CC(C)(C)CC(C)(C)c1cc(C(C)(C)c2ccccc2)cc(-n2nc3ccccc3n2)c1O [I]
## Result rule met

## Task Confirm if Units Absorbance Loss reported for the compound CC(C)(C)c1cc(CCCO)cc(-n2nc3ccccc3n2)c1O [Compound L] is 0.4 or above.
## Result rule not met
